Consider the following compounds; for each one, report its mortality at 1000 µg/mL.
# Test system: Mythimna separata
# measurement description: In vivo insecticidal activity against pre-third-instar larval stage of Mythimna separata (Oriental armyworm) in corn leaves assessed as corrected mortality rate at 1 mg/ml treated for 3 secs before larval infestation on corn leaves measured after 10 days by leaf-dipping method
# Assay type: functional
# measurement parameters: 240 h
One number for each entry, in %.

Below, 7 compounds whose answers are already recorded.
| input smiles | result unit | reported value |
| --- | --- | --- |
| COc1cc([C@@H]2c3cc4c(cc3C[C@H]3COC(=O)[C@@H]32)OCO4)cc(OC)c1OS(=O)(=O)c1ccc(Br)cc1 | % | 20 |
| COc1cc([C@@H]2c3cc4c(cc3C[C@H]3COC(=O)[C@@H]32)OCO4)cc(OC)c1OS(=O)(=O)c1ccccc1 | % | 16.7 |
| COc1cc([C@@H]2c3cc4c(cc3C[C@H]3COC(=O)[C@@H]32)OCO4)cc(OC)c1OC | % | 16.7 |
| COc1cc([C@@H]2c3cc4c(cc3C[C@H]3COC(=O)[C@@H]32)OCO4)cc(OC)c1OS(=O)(=O)c1ccc(Cl)c([N+](=O)[O-])c1 | % | 3.3 |
| COc1cc([C@@H]2c3cc4c(cc3C[C@H]3COC(=O)[C@@H]32)OCO4)cc(OC)c1OS(=O)(=O)c1cccc([N+](=O)[O-])c1 | % | 26.7 |
| COc1ccc(S(=O)(=O)Oc2c(OC)cc([C@@H]3c4cc5c(cc4C[C@H]4COC(=O)[C@@H]43)OCO5)cc2OC)cc1 | % | 33.3 |
| COc1cc([C@@H]2c3cc4c(cc3C[C@H]3COC(=O)[C@@H]32)OCO4)cc(OC)c1OS(=O)(=O)c1ccc(Cl)cc1 | % | 10 |

Input line: Form: Entry = "COc1cc([C@@H]2c3cc4c(cc3C[C@H]3COC(=O)[C@@H]32)OCO4)cc(OC)c1O" | System = Mythimna separata | mortality at 1000 µg/mL = ____
Output line: 10

====

# System: Mythimna separata
# measurement description: In vivo insecticidal activity against pre-third-instar larval stage of Mythimna separata (Oriental armyworm) in corn leaves assessed as corrected mortality rate at 1 mg/ml treated for 3 secs before larval infestation on corn leaves measured after 10 days by leaf-dipping method
# Assay type: functional
# measurement parameters: 240 h
Consider the following compounds; for each one, report its mortality at 1000 µg/mL.
Give bare numbers, in %.

Below, 2 compounds whose answers are already recorded.
| input smiles | reported value |
| --- | --- |
| CC(=O)O[C@@H]1C[C@H](O)[C@@]23CO[C@@H](O)[C@]1(C)[C@@H]2C[C@@H](O)[C@]1(C)[C@@H]3C(=O)[C@H](OC(C)=O)[C@@]2(C)[C@H](c3ccoc3)C[C@H]3O[C@]321 | 30 |
| CCc1ccc(S(=O)(=O)Oc2c(OC)cc([C@@H]3c4cc5c(cc4C[C@H]4COC(=O)[C@@H]43)OCO5)cc2OC)cc1 | 13.3 |

Now look at this entry.
Input line: Look at this compound and give its reported mortality at 1000 µg/mL. "COc1cc([C@@H]2c3cc4c(cc3C[C@H]3COC(=O)[C@@H]32)OCO4)cc(OC)c1OS(=O)(=O)c1ccc(C)cc1"
Output line: 3.3
